Values compiled from PubChem BioAssay AID2060907.

test system: 388556-164-R-J1-PDC complex spheroid viability; experiment: Anticancer human tumor 388556-164-R-J1-PDC patient-derived colon adenocarcinoma cell line growth inhibition [RAS]; conditions: second compound 3.16 µM; first compound 0.0316 µM; active compounds read low
The label is 1.0 for viability, T/C below 80% and 0.0 for viability, T/C equal to or exceeding 80%.

Field: example entries. Status: answers known.
Cc1nc(N2CCC3(CC2)COC(C)C3N)c(CO)nc1Sc1ccnc(N)c1Cl (stereo not given) + C#Cc1c(F)ccc2cc(O)cc(-c3ncc4c(N5CC6CCC(C5)N6)nc(OCC56CCCN5CC(F)C6)nc4c3F)c12; 1.0
CCN1CCN(Cc2ccc(Nc3ncc(F)c(-c4cc(F)c5nc(C)n(C(C)C)c5c4)n3)nc2)CC1 + C#Cc1c(F)ccc2cc(O)cc(-c3ncc4c(N5CC6CCC(C5)N6)nc(OCC56CCCN5CC(F)C6)nc4c3F)c12; 1.0
C=CC(=O)N1CCN(c2nc(OCC3CCCN3C)nc3c(F)c(-c4nc(N)cc(C)c4C(F)(F)F)c(Cl)cc23)C(C)C1 (stereo not given) + C#Cc1c(F)ccc2cc(O)cc(-c3ncc4c(N5CC6CCC(C5)N6)nc(OCC56CCCN5CC(F)C6)nc4c3F)c12; 0.0

### Prompt Here's an entry: C=CC(=O)Nc1cc(Nc2nccc(-c3cn(C)c4ccccc34)n2)c(OC)cc1N(C)CCN(C)C + C#Cc1c(F)ccc2cc(O)cc(-c3ncc4c(N5CC6CCC(C5)N6)nc(OCC56CCCN5CC(F)C6)nc4c3F)c12 . Is its viability, T/C below 80%?
### Response 0.0

### Prompt Just wondering, is viability, T/C of CC(C)n1nc(-c2ccc3oc(N)nc3c2)c2c(N)ncnc21 + C#Cc1c(F)ccc2cc(O)cc(-c3ncc4c(N5CC6CCC(C5)N6)nc(OCC56CCCN5CC(F)C6)nc4c3F)c12 below 80%?
### Response 1.0

* * *

test system: 388556-164-R-J1-PDC complex spheroid viability; assay: Anticancer human tumor 388556-164-R-J1-PDC cell line growth inhibition [RAS]; settings: second compound 1 µM; first compound 0.0316 µM; active compounds read low;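 also: spheroids exposed to compound for 7 days before readout; 100% = DMSO vehicle control luminescence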
measurementKind: viability, T/C (%)
Numbers only, in %.

The examples below pair each entry with its known result.
CCC(CC)c1cc(NC2CCC(N)C2)n2nccc2n1 (stereo not given) + C#Cc1c(F)ccc2cc(O)cc(-c3ncc4c(N5CC6CCC(C5)N6)nc(OCC56CCCN5CC(F)C6)nc4c3F)c12; 82.5
C=CC(=O)Nc1cc(Nc2nccc(-c3cn(C)c4ccccc34)n2)c(OC)cc1N(C)CCN(C)C + C=CC(=O)N1CCN(c2nc(OCC3CCCN3C)nc3c(F)c(-c4nc(N)cc(C)c4C(F)(F)F)c(Cl)cc23)C(C)C1; 93.5
CC(=O)OC12COC1CC(O)C1(C)C(=O)C(O)C3=C(C)C(OC(=O)C(O)C(NC(=O)OC(C)(C)C)c4ccccc4)CC(O)(C(OC(=O)c4ccccc4)C21)C3(C)C (stereo not given) + C#Cc1c(F)ccc2cc(O)cc(-c3ncc4c(N5CC6CCC(C5)N6)nc(OCC56CCCN5CC(F)C6)nc4c3F)c12; 78.5
Nc1ccn(C2OC(CO)C(O)C2(F)F)c(=O)n1 (stereo not given) + C#Cc1c(F)ccc2cc(O)cc(-c3ncc4c(N5CC6CCC(C5)N6)nc(OCC56CCCN5CC(F)C6)nc4c3F)c12; 60.1

### Prompt Identify viability, T/C associated with the compound CCC(CC)c1cc(NC2CCC(N)C2)n2nccc2n1 (stereo not given) + C=CC(=O)N1CCN(c2nc(OCC3CCCN3C)nc3c(F)c(-c4nc(N)cc(C)c4C(F)(F)F)c(Cl)cc23)C(C)C1
### Response 98.6

* * *

For each of the molecules below, state its viability, T/C.
system: 388556-164-R-J1-PDC complex spheroid viability; experiment: Anticancer human tumor 388556-164-R-J1-PDC cell line growth inhibition [RAS]; details: second compound 0.003 µM; first compound 1 µM; active compounds read low;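 also: spheroids exposed to compound for 7 days before readout; 100% = DMSO vehicle control luminescence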
One number for each entry, in %.

// below: answered molecules
Nc1ccn(C2OC(CO)C(O)C2(F)F)c(=O)n1 (stereo not drawn) + CCn1c(-c2cc(N3CCN(C)CC3)cnc2C(C)OC)c2c3cc(ccc31)-c1csc(n1)CC(NC(=O)C1CC1C)C(=O)N1CCCC(N1)C(=O)OCC(C)(C)C2; 61.8
CC(C)NCC(C(=O)N1CCN(c2ncnc3c2C(C)CC3O)CC1)c1ccc(Cl)cc1 (stereo not drawn) + CCn1c(-c2cccnc2C(C)OC)c2c3cc(ccc31)N1CCOC(CC(NC(=O)C(C(C)C)N(C)C(=O)C3(F)CCN(C(=O)C#CC(C)(C)N(C)C)CC3)C(=O)N3CCCC(N3)C(=O)OCC(C)(C)C2)C1; 99.1
CCN1CCN(Cc2ccc(Nc3ncc(F)c(-c4cc(F)c5nc(C)n(C(C)C)c5c4)n3)nc2)CC1 + CCn1c(-c2cc(N3CCN(C)CC3)cnc2C(C)OC)c2c3cc(ccc31)-c1csc(n1)CC(NC(=O)C1CC1C)C(=O)N1CCCC(N1)C(=O)OCC(C)(C)C2; 58.7

Quick request: viability, T/C for each listed item, please.
1. C[C@@H](NC(=O)c1ncnc(N)c1Cl)c1ncc(C(=O)Nc2cc(C(F)(F)F)c(Cl)cn2)s1 + CCn1c(-c2cc(N3CCN(C)CC3)cnc2C(C)OC)c2c3cc(ccc31)-c1csc(n1)CC(NC(=O)C1CC1C)C(=O)N1CCCC(N1)C(=O)OCC(C)(C)C2
2. O=C(c1ccc(F)c(F)c1Nc1ccc(I)cc1F)N1CC(O)([C@@H]2CCCCN2)C1 + CCn1c(-c2cccnc2C(C)OC)c2c3cc(ccc31)N1CCOC(CC(NC(=O)C(C(C)C)N(C)C(=O)C3(F)CCN(C(=O)C#CC(C)(C)N(C)C)CC3)C(=O)N3CCCC(N3)C(=O)OCC(C)(C)C2)C1
3. CC(Nc1ccc2c(c1)OCCn1cc(N3C(=O)OCC3C(F)F)nc1-2)C(N)=O (stereo not drawn) + CCn1c(-c2cc(N3CCN(C)CC3)cnc2C(C)OC)c2c3cc(ccc31)-c1csc(n1)CC(NC(=O)C1CC1C)C(=O)N1CCCC(N1)C(=O)OCC(C)(C)C2

### Response
1. 101
2. 22.5
3. 62.6

Batch of 2 molecules: report viability, T/C for each.
1. CCC(CC)c1cc(NC2CCC(N)C2)n2nccc2n1 (stereo not drawn) + CCn1c(-c2cccnc2C(C)OC)c2c3cc(ccc31)N1CCOC(CC(NC(=O)C(C(C)C)N(C)C(=O)C3(F)CCN(C(=O)C#CC(C)(C)N(C)C)CC3)C(=O)N3CCCC(N3)C(=O)OCC(C)(C)C2)C1
2. C[C@@H](NC(=O)c1ncnc(N)c1Cl)c1ncc(C(=O)Nc2cc(C(F)(F)F)c(Cl)cn2)s1 + CCn1c(-c2cccnc2C(C)OC)c2c3cc(ccc31)N1CCOC(CC(NC(=O)C(C(C)C)N(C)C(=O)C3(F)CCN(C(=O)C#CC(C)(C)N(C)C)CC3)C(=O)N3CCCC(N3)C(=O)OCC(C)(C)C2)C1

### Response
104
108

* * *

test system: 388556-164-R-J1-PDC complex spheroid viability; test: Anticancer human tumor 388556-164-R-J1-PDC cell line growth inhibition [RAS]; conditions: second compound 0.00949 µM; first compound 0.316 µM; active compounds read low;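 also: spheroids exposed to compound for 7 days before readout; 100% = DMSO vehicle control luminescence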
measurementKind: viability, T/C (%)
Numbers only, in %.

CC(C)NCC(C(=O)N1CCN(c2ncnc3c2C(C)CC3O)CC1)c1ccc(Cl)cc1 (stereo not drawn) + CCn1c(-c2cccnc2C(C)OC)c2c3cc(ccc31)N1CCOC(CC(NC(=O)C(C(C)C)N(C)C(=O)C3(F)CCN(C(=O)C#CC(C)(C)N(C)C)CC3)C(=O)N3CCCC(N3)C(=O)OCC(C)(C)C2)C1; 101
Nc1ccn(C2OC(CO)C(O)C2(F)F)c(=O)n1 (stereo not drawn) + CCn1c(-c2cccnc2C(C)OC)c2c3cc(ccc31)N1CCOC(CC(NC(=O)C(C(C)C)N(C)C(=O)C3(F)CCN(C(=O)C#CC(C)(C)N(C)C)CC3)C(=O)N3CCCC(N3)C(=O)OCC(C)(C)C2)C1; 70
C=CC(=O)Nc1cc(Nc2nccc(-c3cn(C)c4ccccc34)n2)c(OC)cc1N(C)CCN(C)C + CCn1c(-c2cccnc2C(C)OC)c2c3cc(ccc31)N1CCOC(CC(NC(=O)C(C(C)C)N(C)C(=O)C3(F)CCN(C(=O)C#CC(C)(C)N(C)C)CC3)C(=O)N3CCCC(N3)C(=O)OCC(C)(C)C2)C1; 82.3
CC(=O)OC12COC1CC(O)C1(C)C(=O)C(O)C3=C(C)C(OC(=O)C(O)C(NC(=O)OC(C)(C)C)c4ccccc4)CC(O)(C(OC(=O)c4ccccc4)C21)C3(C)C (stereo not drawn) + CCn1c(-c2cccnc2C(C)OC)c2c3cc(ccc31)N1CCOC(CC(NC(=O)C(C(C)C)N(C)C(=O)C3(F)CCN(C(=O)C#CC(C)(C)N(C)C)CC3)C(=O)N3CCCC(N3)C(=O)OCC(C)(C)C2)C1; 76.6
CCC(CC)c1cc(NC2CCC(N)C2)n2nccc2n1 (stereo not drawn) + CCn1c(-c2cc(N3CCN(C)CC3)cnc2C(C)OC)c2c3cc(ccc31)-c1csc(n1)CC(NC(=O)C1CC1C)C(=O)N1CCCC(N1)C(=O)OCC(C)(C)C2; 73.7

Consider the following items and state reported viability, T/C for each.
1. O=C(c1ccc(F)c(F)c1Nc1ccc(I)cc1F)N1CC(O)([C@@H]2CCCCN2)C1 + CCn1c(-c2cccnc2C(C)OC)c2c3cc(ccc31)N1CCOC(CC(NC(=O)C(C(C)C)N(C)C(=O)C3(F)CCN(C(=O)C#CC(C)(C)N(C)C)CC3)C(=O)N3CCCC(N3)C(=O)OCC(C)(C)C2)C1
2. C=CC(=O)N1CCN(c2nc(OCC3CCCN3C)nc3c(F)c(-c4nc(N)cc(C)c4C(F)(F)F)c(Cl)cc23)C(C)C1 (stereo not drawn) + CCn1c(-c2cc(N3CCN(C)CC3)cnc2C(C)OC)c2c3cc(ccc31)-c1csc(n1)CC(NC(=O)C1CC1C)C(=O)N1CCCC(N1)C(=O)OCC(C)(C)C2
3. CC1(O)CCCC1n1c(=O)c(C(F)F)cc2cnc(NC3CCN(S(C)(=O)=O)CC3)nc21 (stereo not drawn) + CCn1c(-c2cc(N3CCN(C)CC3)cnc2C(C)OC)c2c3cc(ccc31)-c1csc(n1)CC(NC(=O)C1CC1C)C(=O)N1CCCC(N1)C(=O)OCC(C)(C)C2

### Response
47.6
85
80.6
